Attribution: the supplement of paper PMC6555819

- System: RARb:RXRa (NR concentration 270 nM, RXRa partner concentration 90 nM)
- TEST METHOD NOTES: PBM binding z-score (relative to random genomic background probes); higher = stronger binding; sequences stand for … in GC…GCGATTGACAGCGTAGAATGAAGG
Recorded PBM binding z-score determines the label; the label ranges are low class: < 1; middle class: ≥ 1 and < 3; high class: ≥ 3

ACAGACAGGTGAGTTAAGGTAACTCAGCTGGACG    low class
TCGAATAGGTTAGTCGGGGCATTCAGCCAACATA    middle class
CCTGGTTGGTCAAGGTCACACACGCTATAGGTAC    high class
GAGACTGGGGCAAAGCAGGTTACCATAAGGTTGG    middle class
CCTCGGAGGACAACAGGAGGTCAGCGCTGCCAGA    high class
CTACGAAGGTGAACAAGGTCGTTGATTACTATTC    middle class
ACCGACAGGTGATGAAGGTAACTCAGGCTATCAT    low class
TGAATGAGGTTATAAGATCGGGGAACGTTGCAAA    middle class
GCTTACGGGTAAAAGGTTATAGCATGAATAGAAT    middle class
GCATATACGTAATACAAGGTGAAAGTCCGATTGT    low class
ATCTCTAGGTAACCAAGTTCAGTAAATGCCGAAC    middle class
CCGAGTAGGTTATGGGGCATTCGGGCAACGGTGA    middle class
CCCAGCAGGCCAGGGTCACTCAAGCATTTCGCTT    middle class
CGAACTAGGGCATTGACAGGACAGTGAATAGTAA    middle class
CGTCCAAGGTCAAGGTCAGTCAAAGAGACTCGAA    high class
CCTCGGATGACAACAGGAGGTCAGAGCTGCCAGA    middle class
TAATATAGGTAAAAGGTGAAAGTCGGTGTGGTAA    middle class
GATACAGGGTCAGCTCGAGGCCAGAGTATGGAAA    high class
TCATATAGTTAATACAGGTGAAAGTCGGCATCTA    low class
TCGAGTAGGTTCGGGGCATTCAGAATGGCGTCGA    low class
CCTATTAGTTGAGCATAAGGGCAACCGAAGCTCG    middle class
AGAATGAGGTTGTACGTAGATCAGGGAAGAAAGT    low class
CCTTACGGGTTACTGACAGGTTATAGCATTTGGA    low class
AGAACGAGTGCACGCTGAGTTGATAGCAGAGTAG    low class
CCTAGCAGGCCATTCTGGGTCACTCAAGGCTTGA    middle class
CCTACTGGGCCAAGGTCCTTGATCAGTCAAAGCA    low class
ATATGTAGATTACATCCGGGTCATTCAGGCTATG    middle class
CGAACTAGGTCATTGACTGGACAGTGAATAGTAA    high class
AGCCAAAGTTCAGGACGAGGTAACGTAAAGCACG    high class
TCTAGTTGGGCAAAGGTCACACACTCGAAATGCG    high class
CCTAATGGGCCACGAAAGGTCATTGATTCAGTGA    high class
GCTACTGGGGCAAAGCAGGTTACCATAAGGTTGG    middle class
CCGACTGGGGTAGAAAGGTTACCATACCATCCGG    middle class
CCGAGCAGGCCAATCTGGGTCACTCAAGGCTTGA    middle class
CGGACTAGGTCATCCAGGACAGTGAATACATTGA    high class
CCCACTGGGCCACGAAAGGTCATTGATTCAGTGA    high class
AATACAGGGTCACTAGGACAGAGTAGGTACGAAT    high class
TTACCAAGGTGAGTTGAGGTCGTTGATCCAACTC    middle class
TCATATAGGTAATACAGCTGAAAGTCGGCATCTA    low class
GGAACGAGGGAATTCGAGTTGATAGCATGGCGAT    low class
GCTACAGGGTCAGCTAGAGGCCAGAGTATGGAAA    high class
CCTACTGGGCCACGCAAGGTCATTGATTCAGTGA    middle class
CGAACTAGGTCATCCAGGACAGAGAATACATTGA    high class
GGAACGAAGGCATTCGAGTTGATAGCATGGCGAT    low class
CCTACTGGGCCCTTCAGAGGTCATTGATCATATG    middle class
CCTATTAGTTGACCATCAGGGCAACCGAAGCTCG    middle class
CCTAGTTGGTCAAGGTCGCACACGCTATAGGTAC    middle class
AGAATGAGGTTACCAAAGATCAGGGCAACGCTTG    middle class
AATAGAGGGTCACTAGGCCAGAGTAGGTACGAAT    high class
